System: LPS-induced TNFα production of human peripheral blood mononuclear cells
Assay: Test of inhibition of LPS-induced TNFα production using human peripheral blood mononuclear cells
Format: cell-based
Details: LPS 100 ng/mL; culture about 18 hours; TNFα by ELISA; read-out: IC50 value (nM) of TNFα production inhibitory action of human PBMC
metricName: IC50

Reported IC50 for CCCc1cccc(-c2ccc(CN(Cc3cccc(NCC(=O)O)n3)S(=O)(=O)c3ccccn3)cc2)c1 [Comparative Example 1, reference compound] was > 300 nM

* * *

Biological target: human EP2 receptor (Homo sapiens, UniProt P43116)
Sequence (P43116 whole entry): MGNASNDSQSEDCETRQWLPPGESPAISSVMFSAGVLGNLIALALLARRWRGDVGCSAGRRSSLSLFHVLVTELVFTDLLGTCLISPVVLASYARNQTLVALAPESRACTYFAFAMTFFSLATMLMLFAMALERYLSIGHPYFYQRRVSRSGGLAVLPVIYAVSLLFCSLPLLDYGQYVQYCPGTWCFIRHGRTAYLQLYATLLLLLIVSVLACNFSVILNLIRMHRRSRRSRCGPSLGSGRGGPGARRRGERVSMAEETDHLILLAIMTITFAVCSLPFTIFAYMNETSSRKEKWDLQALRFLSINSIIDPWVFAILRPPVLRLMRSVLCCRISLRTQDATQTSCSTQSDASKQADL
Assay: Measurement of EP2 receptor binding action ([3H]prostaglandin E2 displacement)
Conditions: membrane fraction of HEK293 cells expressing human EP2 receptor; [3H]prostaglandin E2 10 nM; 30° C., 60 minutes; read-out: Ki value (nM) of EP2 receptor binding action
Each entry below carries its reported Ki.
The answer is to be given in nM; state only the numeric part.

Completed entries (count: 4):
CC=Cc1cccc(-c2ccc(CN(Cc3cccc(NCC(=O)O)n3)S(=O)(=O)c3ccccn3)cc2)c1 [Example 2] ... 0.53
CC#Cc1cccc(-c2ccc(CN(Cc3cccc(NCC(=O)O)n3)S(=O)(=O)c3cccs3)cc2)c1 [Example 14] ... 0.9
CC#Cc1cccc(-c2ccc(CN(Cc3cccc(NCC(=O)O)n3)S(=O)(=O)c3ccsc3)cc2)c1 [Example 18] ... 0.99
CCCc1cccc(-c2ccc(CN(Cc3cccc(NCC(=O)O)n3)S(=O)(=O)c3ccccn3)cc2)c1 [Comparative Example 1, reference compound] ... 1.1

Pending compound:
Hey, human EP2 receptor (Homo sapiens, UniProt P43116) data for CC#Cc1cccc(-c2ccc(CN(Cc3cccc(NCC(=O)O)n3)S(=O)(=O)c3ccccn3)cc2)c1 [Example 4] : Ki came out at 0.8
